# assayed-target: SIRT1 (Homo sapiens, UniProt Q96EB6)
# Sequence (Q96EB6 whole entry): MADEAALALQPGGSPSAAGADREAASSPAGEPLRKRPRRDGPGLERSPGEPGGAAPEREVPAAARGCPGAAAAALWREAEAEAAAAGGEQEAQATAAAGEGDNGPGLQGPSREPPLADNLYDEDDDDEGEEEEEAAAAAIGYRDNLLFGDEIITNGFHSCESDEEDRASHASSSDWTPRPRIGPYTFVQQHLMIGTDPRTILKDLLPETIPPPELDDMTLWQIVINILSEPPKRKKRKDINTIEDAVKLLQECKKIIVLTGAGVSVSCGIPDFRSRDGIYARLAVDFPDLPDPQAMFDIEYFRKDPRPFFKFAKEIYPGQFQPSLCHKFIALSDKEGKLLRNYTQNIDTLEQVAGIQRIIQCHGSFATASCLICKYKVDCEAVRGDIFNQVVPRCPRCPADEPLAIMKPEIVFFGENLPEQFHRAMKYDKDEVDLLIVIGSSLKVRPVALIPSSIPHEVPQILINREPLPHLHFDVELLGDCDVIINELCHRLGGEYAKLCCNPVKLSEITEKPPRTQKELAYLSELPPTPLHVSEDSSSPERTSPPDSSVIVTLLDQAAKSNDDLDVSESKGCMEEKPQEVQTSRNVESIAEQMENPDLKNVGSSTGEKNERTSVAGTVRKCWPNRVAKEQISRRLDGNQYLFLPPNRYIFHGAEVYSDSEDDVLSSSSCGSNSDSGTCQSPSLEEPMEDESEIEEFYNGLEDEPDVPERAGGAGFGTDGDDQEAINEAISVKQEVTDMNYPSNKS
# experiment-notes: Mass spectrometry based assay of SIRT1 activity (deacetylation of a p53-based acetylated peptide)
# Assay type: biochemical
# measurement-parameters: 10 nM SIRT1, 0.5 μM peptide substrate, 120 μM βNAD+, 25 minutes at 25° C.; read-out: % FOLD ACT. (percent maximum fold activation)
parameter-measured: Emax

[Q] Report Emax for O=C(NC1CCCc2ccc(-c3cccc(C(F)(F)F)c3)nc21)c1cccc(N2CCCC2)n1 (centres unmarked) [Compound 235] please.
[A] < 200%

[Q] Report Emax for O=C(NC1CCCc2ccc(-c3ccc(F)c(C(F)(F)F)c3)nc21)c1cnccn1 (centres unmarked) [Compound 254] please.
[A] < 200%

[Q] Report Emax for Cc1cc(C(=O)NC2CCCc3ccc(-c4cccc(C(F)(F)F)c4)nc32)n(C)n1 (centres unmarked) [Compound 227] please.
[A] > 200%

[Q] Report Emax for O=C(NC1CCCc2ccc(-c3cccc(C(F)(F)F)c3)nc21)c1ccccn1 (centres unmarked) [Compound 231] please.
[A] > 200%

[Q] Report Emax for O=C(NC1CCOc2ccc(-c3cccc(C(F)(F)F)c3)nc21)c1cccc(N2CCOCC2)n1 (centres unmarked) [Compound 222] please.
[A] > 200%

[Q] Report Emax for O=C(NC1CCCc2ccc(-c3cccc(OC(F)(F)F)c3)nc21)c1cnccn1 (centres unmarked) [Compound 252] please.
[A] > 200%

[Q] Report Emax for O=C(NC1CCCc2ccc(-c3cccc(C(F)(F)F)c3)nc21)c1cnccn1 (centres unmarked) [Compound 206] please.
[A] > 200%

[Q] Report Emax for O=C(NC1CCCc2ccc(-c3cccc(C(F)(F)F)c3)nc21)c1cccc(C2CCNC2)c1 (centres unmarked) [Compound 242] please.
[A] > 200%
